Target: TNAP human plasma (Homo sapiens, UniProt P05186)
Details: substrate pNPP
readout_type: IC50

Exam item: Looking for the measured IC50 of `COc1ccc(OC)c(S(=O)(=O)Nc2cnc3ccc(C(=O)NC4CCCCC4)cc3c2)c1` , can you help?
Marked response: < 5 µM

====

pIC50: −log10 of the molar value.
Recorded below: pIC50, system TNAP (Homo sapiens (Human), UniProt P05186).

Exam item: Looking for the measured pIC50 of `COc1ccc(OC)c(S(=O)(=O)Nc2cncc(-c3ccc(C(F)(F)F)cc3)c2)c1` , can you help?
Marked response: 6.00 to 7.00

Exam item: Looking for the measured pIC50 of `COc1ccc(OC)c(S(=O)(=O)Nc2cncc(-c3cnn(C)c3)c2)c1` , can you help?
Marked response: > 7.00

Exam item: Looking for the measured pIC50 of `COc1ccc(OC(F)(F)F)cc1S(=O)(=O)Nc1cncc(-c2cnccn2)c1` , can you help?
Marked response: 6.00 to 7.00

Exam item: Looking for the measured pIC50 of `COc1ccc(-c2ccoc2)cc1S(=O)(=O)Nc1cnc2ccccc2c1` , can you help?
Marked response: 6.00 to 7.00

Exam item: Looking for the measured pIC50 of `COc1ccc(Br)cc1S(=O)(=O)Nc1cncc(-c2ccc(C#N)cc2)c1` , can you help?
Marked response: > 7.00

Exam item: Looking for the measured pIC50 of `COc1ccc(OC)c(S(=O)(=O)Nc2cncc(-c3ccc(Cl)cc3)c2)c1` , can you help?
Marked response: 6.00 to 7.00

Exam item: Looking for the measured pIC50 of `COc1ccc(OC)c(S(=O)(=O)Nc2cc[nH]n2)c1` , can you help?
Marked response: < 6.00

Exam item: Looking for the measured pIC50 of `COc1ccc(Cl)cc1S(=O)(=O)Nc1cncc(-c2cccc(Cl)c2)c1` , can you help?
Marked response: 6.00 to 7.00

Exam item: Looking for the measured pIC50 of `COc1ccc(Br)cc1S(=O)(=O)Nc1cscn1` , can you help?
Marked response: < 6.00

====

Recorded below: IC50, system TNAP (Homo sapiens (Human)).

COc1ccc(Br)cc1S(=O)(=O)Nc1cnc2ccc(O)cc2c1 ... < 100 nM
CNc1ccc(NS(=O)(=O)c2cc(Br)ccc2OC)cn1 ... 100 to 1000 nM
COC(=O)c1cncc(NS(=O)(=O)c2cc(OC(F)(F)F)ccc2OC)c1 ... 100 to 1000 nM
COc1ccc(Cl)cc1S(=O)(=O)Nc1cncc(-c2ccccc2Cl)c1 ... < 100 nM

Next compound, please.
Exam item: Looking for the measured IC50 of `COc1ncc(Br)cc1S(=O)(=O)Nc1cnc2ccccc2c1` , can you help?
Marked response: < 100 nM
